Items are presented alongside their recorded IC50.
- tested on: Sodium-dependent serotonin transporter (Rattus norvegicus, UniProt P31652)
- Sequence (P31652 whole entry): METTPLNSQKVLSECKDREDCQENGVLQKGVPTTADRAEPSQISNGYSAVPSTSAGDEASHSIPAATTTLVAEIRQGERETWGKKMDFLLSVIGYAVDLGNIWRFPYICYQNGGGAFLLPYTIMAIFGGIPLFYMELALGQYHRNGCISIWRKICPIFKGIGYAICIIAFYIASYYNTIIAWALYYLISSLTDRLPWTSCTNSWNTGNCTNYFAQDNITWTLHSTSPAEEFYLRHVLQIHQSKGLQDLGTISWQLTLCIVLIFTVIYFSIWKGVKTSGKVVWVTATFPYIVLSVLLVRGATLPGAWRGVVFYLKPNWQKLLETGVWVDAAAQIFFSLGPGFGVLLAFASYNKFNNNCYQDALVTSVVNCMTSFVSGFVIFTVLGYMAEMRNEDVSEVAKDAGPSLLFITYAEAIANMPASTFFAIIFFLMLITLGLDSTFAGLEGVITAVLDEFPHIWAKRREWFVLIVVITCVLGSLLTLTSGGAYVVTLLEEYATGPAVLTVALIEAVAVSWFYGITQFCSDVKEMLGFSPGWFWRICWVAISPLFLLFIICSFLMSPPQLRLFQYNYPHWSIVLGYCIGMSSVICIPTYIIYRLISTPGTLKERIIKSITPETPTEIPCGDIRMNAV
- method: Binding affinity at the Serotonin transporter in rat midbrain by inhibition of 0.5 nM [3H]-paroxetine binding
- Type: tissue-based
attribute measured: IC50 (nM)

>>> quantitative_readout("CN1C2CCC1C(C(=O)OCCc1ccccc1)C(OC(=O)c1ccccc1)C2 (stereo unspecified)")
615
>>> quantitative_readout("CNC(=O)C1C(c2ccc(Cl)cc2)CC2CCC1N2C (stereo unspecified)")
1310
>>> quantitative_readout("CON(C)C(=O)C1C(c2ccc(I)cc2)CC2CCC1N2C (stereo unspecified)")
73.9
>>> quantitative_readout("CN1C2CCC1C(C(=O)Oc1ccccc1)C(c1ccccc1)C2 (stereo unspecified)")
106000
>>> quantitative_readout("COc1ccc(OC(=O)C2C(c3ccc(Cl)cc3)CC3CCC2N3C)cc1 (stereo unspecified)")
19700
>>> quantitative_readout("CN1C2CCC1C(C(=O)OCc1ccccc1)C(OC(=O)c1ccccc1)C2 (stereo unspecified)")
302
